measure: melting point

Consider the reported melting point for these molecules:
>>> reported_result("CN(Cc1ccccc1)C(=O)c1c(-c2ccncc2)c(-c2ccc(F)cc2)nn1C [Example 77]")
"149.1 to 150.2 °C"
>>> reported_result("CC(OCc1ccccc1)c1[nH]nc(-c2ccc(F)cc2)c1-c1ccncc1 (stereo not drawn) [Example 83]")
"169.2 to 173.5 °C"
>>> reported_result("COc1ccc(CNC(=O)c2c(-c3ccncc3)c(-c3ccc(F)cc3)nn2C)cc1 [Example 69]")
"162.3 to 164.8 °C"
>>> reported_result("Cn1nc(-c2ccc(F)cc2)c(-c2ccncc2)c1CCCc1ccccc1 [Example 58]")
"83 to 87 °C"
>>> reported_result("Cn1nc(-c2ccc(F)cc2)c(-c2ccncc2)c1CC(=O)Cc1ccccc1 [Example 87]")
"148.1 to 151 °C"

What measured melting point goes with Fc1ccc(-c2n[nH]c(CCCn3cccn3)c2-c2ccncc2)cc1 [Example 55] ?
144.5 to 146.5 °C
